Recorded values, source patent US20030166663A1.

experiment: Determination of plasma concentration at steady state (Css, tot) in ob/ob mice; assay type: in vivo, mouse; conditions: mouse, plasma, subcutaneous, continuous s.c. infusion, nominal 100 mg/kg/day, read-out: Css, tot (total plasma exposure at steady state)
# reported concentration at 24 h; entries follow
ENDPOINT: concentration at 24 h (nM)

INSERT INTO results (compound, result_units, recorded_number) VALUES
  ('CCCCc1ccc(S(=O)(=O)Nc2ccc3nccc(N4CCNCC4)c3c2)cc1 [EXAMPLE 2]', 'nM', 1290),
  ('Cc1c(S(=O)(=O)Nc2ccc3nccc(N4CCN(C)CC4)c3c2)sc2ccc(Cl)cc12 [EXAMPLE 1]', 'nM', 1810);

* * *

assay: Determination of plasma concentration at steady state (Css, tot) in ob/ob mice; assay type: in vivo, mouse; conditions: mouse, plasma, subcutaneous, continuous s.c. infusion, nominal 30 mg/kg/day, read-out: Css, tot (total plasma exposure at steady state)
# reported concentration at 24 h; entries follow
ENDPOINT: concentration at 24 h (nM)

INSERT INTO results (query_smiles, recorded_number) VALUES
  ('CCCCc1ccc(S(=O)(=O)Nc2ccc3nccc(N4CCNCC4)c3c2)cc1', 940),
  ('Cc1c(S(=O)(=O)Nc2ccc3nccc(N4CCN(C)CC4)c3c2)sc2ccc(Cl)cc12', 1620);
